Protocol description: Cytotoxicity counterscreen for inhibitors of SARS-CoV-2 cell entry (AID 1645845); further: nearly all actives have a fitted effect of over 50% in size
Recorded conditions: cell viability (SARS-CoV-2 entry assay cells); series mostly up to 57.1 µM
Description: Assay Provider: Wei Zheng, Ph.D. National Center for Advancing Translational Sciences, National Institute of Health, Rockville, MD. SARS-CoV-2 spike protein, within the viral envelope, mediates viral attachment and infection of host cells. The SARS-CoV-2 spike protein specifically binds to the host receptor ACE2 (Angiotensin-converting enzyme 2). […] 7. […] Dispense 4 uL/well of ATPLite 1step luminescence assay reagent (PerkinElmer #6016739). […] 9. […] Read luminescence signal (Viewlux plate reader, PerkinElmer). […]
Results filed as inconclusive are left out. Calls of active or inactive are those of the source. The call rests on the fitted dose curve.
Select the correct class. Options are YES = active, NO = inactive and nothing else.

[[record]]
compound = "CCCCOc1nc(N)c2c(n1)N(Cc1cccc(CN3CCCC3)c1)CC(=O)N2"
class = "NO"

[[record]]
compound = "CCC(c1ccc(O)cc1)C(CC)c1ccc(O)cc1 (stereo not given)"
class = "NO"

[[record]]
compound = "CC(C)(C)c1nc(-c2cccc(NS(=O)(=O)c3c(F)cccc3F)c2F)c(-c2ccnc(N)n2)s1"
class = "NO"

[[record]]
compound = "O=C(CO)N1CCC(c2[nH]nc(-c3ccc(Cl)cc3)c2-c2ccncn2)CC1"
class = "NO"

[[record]]
compound = "CCC(C)N(C)C(=O)c1cc2ccccc2c(-c2ccccc2Cl)n1 (stereo not given)"
class = "NO"

[[record]]
compound = "C[C@]12CCC3c4ccc(O)cc4CCC3C1CCC2=O (stereo not given in full)"
class = "NO"


Request: Recorded test outcome, item `CCC(=O)NCC[C@@H]1CCc2ccc3c(c21)CCO3`
Result: NO

Request: Also `NC(=O)c1cccc(-c2cc(Nc3ccc(OC(F)(F)F)cc3)ncn2)c1` , if possible.
Result: YES

Request: Also `Cc1ccc(NC(=O)c2cccc(N(C)C)c2)cc1NC(=O)c1ccc(O)cc1` , if possible.
Result: NO

Request: Also `O=C1NC(=O)/C(=C/c2ccc3nccnc3c2)S1` , if possible.
Result: NO

Request: Also Clc1ccc(COC(Cn2ccnc2)c2ccc(Cl)cc2Cl)c(Cl)c1 (stereo not given) , if possible.
Result: NO

Request: Also `O=c1c(O)c(-c2ccc(O)cc2)oc2cc(O)cc(O)c12` , if possible.
Result: NO

Request: Also `C[C@@H](c1ncncc1F)[C@](O)(Cn1cncn1)c1ccc(F)cc1F` , if possible.
Result: NO

Request: Also `NC(=O)c1ccc2[nH]ccc2c1` , if possible.
Result: NO

Request: Also `c1cc(-c2sc(-c3ccncc3)c(-c3ccncc3)c2-c2ccncc2)ccn1` , if possible.
Result: NO

Request: Also `CN1C(=O)C[C@H](C(=O)N[C@@H](Cc2cnc[nH]2)C(=O)N2CCC[C@@H]2C(N)=O)NC1=O` , if possible.
Result: NO

Request: Also `CCN1CCCC1=O` , if possible.
Result: NO

Request: Also `CC(/C=C/C=C(\C)C(=O)O[C@@H]1O[C@H](CO[C@@H]2O[C@H](CO)[C@@H](O)[C@H](O)[C@H]2O)[C@@H](O)[C@H](O)[C@H]1O)=C\C=C\C=C(C)\C=C\C=C(/C)C(=O)O[C@@H]1O[C@H](CO[C@@H]2O[C@H](CO)[C@@H](O)[C@H](O)[C@H]2O)[C@@H](O)[C@H](O)[C@H]1O` , if possible.
Result: NO

Request: Also OC[C@H]1OC(O)C[C@@H](O)[C@H]1O (stereo not given in full) , if possible.
Result: NO

Request: Also `FC(F)(F)c1ccc(Nc2nc3ccc(Oc4ccnc(-c5ncc(C(F)(F)F)[nH]5)c4)cc3[nH]2)cc1` , if possible.
Result: NO

Request: Also `N[C@H](CSC(c1ccccc1)(c1ccccc1)c1ccccc1)C(=O)O` , if possible.
Result: NO

Request: Also `O=C(O)Cc1cccc(OCCCN(Cc2cccc(C(F)(F)F)c2Cl)CC(c2ccccc2)c2ccccc2)c1` , if possible.
Result: NO

Request: Also CC(C(C)N1CC(=O)NC(=O)C1)N1CC(=O)NC(=O)C1 (stereo not given) , if possible.
Result: NO

---

Protocol description: Primary qHTS for Huh7 cytotoxicity: counterscreen for inhibitors of MERS-S pseudotyped particle cell entry (AID 1479147)
Recorded conditions: cell viability read-out; at 57.1 µM (top of the series) unless noted; series mostly up to 57.1 µM
Results filed as inconclusive are left out. Calls of active or inactive are those of the source. Calls come from the whole dose curve.
Readout type: outcome

Solved cases below.
[[record]]
molecule = "COC(=O)[C@H]1[C@@H](OC(=O)c2ccccc2)C[C@@H]2CC[C@H]1N2C"
readout_type = "outcome"
reported_value = "inactive [at 114 µM]"

[[record]]
molecule = "Cc1cn([C@@H]2C[C@@H](O)[C@H](CO)O2)c(=O)[nH]c1=O"
readout_type = "outcome"
reported_value = "inactive"

[[record]]
molecule = "C[C@]12CCC(=O)C[C@@H]1CC[C@@H]1[C@@H]2CC[C@]2(C)C=CC[C@@H]12"
readout_type = "outcome"
reported_value = "inactive"

[[record]]
molecule = "CCOc1nc2cccc(C(=O)OCc3oc(=O)oc3C)c2n1Cc1ccc(-c2ccccc2-c2noc(O)n2)cc1"
readout_type = "outcome"
reported_value = "inactive"

[[record]]
molecule = "CO[C@@H]1[C@@H](OC2OC(C)C(OC3CC(C)(O)C(OC(=O)CC(C)C)C(C)O3)C(N(C)C)C2O)[C@@H](CC=O)C[C@@H](C)C(=O)/C=C\\C2O[C@H]2C[C@@H](C)OC(=O)C[C@H]1OC(C)=O (some centres undefined)"
readout_type = "outcome"
reported_value = "inactive"


Request: Find the recorded outcome belonging to `CN[C@H](CC(C)C)C(=O)N[C@H]1C(=O)N[C@@H](CC(N)=O)C(=O)N[C@H]2C(=O)N[C@H]3C(=O)N[C@H](C(=O)N[C@H](C(=O)O)c4cc(O)cc(O)c4-c4cc3ccc4O)[C@H](O)c3ccc(c(Cl)c3)Oc3cc2cc(c3O[C@@H]2O[C@H](CO)[C@@H](O)[C@H](O)[C@H]2O[C@H]2C[C@](C)(N)[C@H](O)[C@H](C)O2)Oc2ccc(cc2Cl)[C@H]1O` and report it.
Result: inactive [at 26.4 µM]

Request: Also `Cc1ncc(C[n+]2csc(CCO)c2C)c(N)n1` , if possible.
Result: inactive

Request: Also `N[C@H](CO)C(=O)O` , if possible.
Result: inactive

Request: Also `CCCCCCCCCCCCCCCC(=O)OC[C@@H](NC(=O)C(Cl)Cl)[C@H](O)c1ccc([N+](=O)[O-])cc1` , if possible.
Result: inactive

Request: Also N#CC(c1ccc(Cl)cc1)c1c(Cl)cc(-n2ncc(=O)[nH]c2=O)cc1Cl (centres undefined) , if possible.
Result: inactive

Request: Also `CCN(C(=O)c1c(O)c2c(Cl)cccc2n(C)c1=O)c1ccccc1` , if possible.
Result: inactive

Request: Also CCOC(=O)C1(c2ccccc2)CCCN(C)CC1 (centres undefined) , if possible.
Result: inactive

Request: Also `C[N+](C)(C)CCO` , if possible.
Result: inactive [at 114 µM]

Request: Also `C[N+]1(CCCCC[N+]2(C)CCCC2)CCCC1` , if possible.
Result: inactive

Request: Also `COC(=O)C[C@](O)(CCCC(C)(C)O)C(=O)O[C@@H]1C(OC)=C[C@]23CCCN2CCc2cc4c(cc2[C@H]13)OCO4` , if possible.
Result: inactive

Request: Also `C[Se]CC[C@H](N)C(=O)O` , if possible.
Result: inactive [at 26.4 µM]

Request: Also `NC(=O)c1ncn([C@@H]2O[C@H](CO)[C@@H](O)[C@H]2O)n1` , if possible.
Result: inactive

---

System: C33A
Protocol description: Primary qHTS to identify gynecologic anti-cancer compounds using libraries of approved drugs and bioactive compounds (AID 1345084); further: nearly all actives have a fitted effect of over 55% in size; further: potency means the concentration at half of the fitted maximal effect
Recorded conditions: Gynecologic cancer cell panel viability, ATPlite luminescence, 48 h; series mostly up to 57.5 µM
Excerpt: National Center for Advancing Translational Sciences [NCATS] Assay Overview: Chemotherapeutic drug responses vary from cancer to cancer and from patient to patient. […] ATPlite is a luminescence based assay reliant on the conversion of a luciferase substrate to light in the presence of ATP. As a cytotoxic compound will suppress growth and decrease the number of cells, the concentration of ATP will decrease, and less light signal will be detected in the well. […]
Results filed as inconclusive are left out. The source made the active and inactive calls. Calls follow the shape of the dose curve; as a rule, active = well fitted cell-killing curve with a large enough effect; inconclusive = small, poorly fitted or top-dose-only effect, or effect the other way; inactive = flat fitted curve, though single readings scatter.
Readout type: Potency

[[record]]
compound = "C[C@H]1O[C@@H](O[C@H]2CC[C@]3(C=O)C4CC[C@]5(C)[C@@H](C6=CC(=O)OC6)CC[C@]5(O)[C@@H]4CC[C@]3(O)C2)C[C@@H](O)[C@@H]1O (stereo partly specified)"
reported_value = "89.1 nM (active)"

[[record]]
compound = "N#Cc1ccccc1-c1cc(-c2ccccn2)cn(-c2ccccc2)c1=O"
reported_value = "inactive"

[[record]]
compound = "CC1CCCC(=O)CCC/C=C/c2cc(O)cc(O)c2C(=O)O1 (stereo unspecified)"
reported_value = "inactive"

[[record]]
compound = "Cc1sc2c(c1C)C(c1ccc(Cl)cc1)=NC(CC(=O)Nc1ccc(O)cc1)c1nnc(C)n1-2 (stereo unspecified)"
reported_value = "inactive"

[[record]]
compound = "O=C(NCCN1CCC2(CC1)C(=O)NCN2c1cccc(F)c1)c1ccc2ccccc2c1"
reported_value = "inactive"

[[record]]
compound = "C=C1[C@@H](C)[C@H]2[C@H](Cc3ccccc3)NC(=O)[C@]23[C@H](OC(C)=O)/C=C/[C@](C)(O)C(=O)[C@@H](C)C/C=C/[C@H]3[C@@H]1O"
reported_value = "inactive"


Request: Find the recorded Potency belonging to `O=C1CN=C(c2cccc(Br)c2)c2oc3ccccc3c2N1` and report it.
Result: inactive

Request: Also COC1CC(O[C@H]2CC[C@]3(C=O)C4CC[C@]5(C)[C@@H](C6=CC(=O)OC6)CC[C@]5(O)[C@@H]4CC[C@@H]3C2)OC(C)C1O[C@@H]1O[C@H](CO)[C@@H](O[C@@H]2O[C@H](CO)[C@@H](O)[C@H](O)[C@H]2O)[C@H](O)[C@H]1O (stereo partly specified) , if possible.
Result: 178 nM (active)
